# GI50 listing for each entry below
Test system: CCRF-CEM
Assay: NCI tumour cell line growth inhibition, 48 h
The source made the active and inactive calls. Cut-off read from the data, not from the text of the source: active = GI50 up to about 1.1 µM and inactive = higher.

Request the reported GI50 associated with "O=Cc1ccc2c(c1)CC1(C2)Cc2ccc(C=O)cc2C1"
1.68 µM (inactive)

Request the reported GI50 associated with "Cc1cnc2c(c1)C(=O)N(c1ccc([N+](=O)[O-])cc1)S2(=O)=O"
82.4 µM (inactive)

Request the reported GI50 associated with C/C(Cc1ccc2c(c1)OCO2)=N\NC(=O)C(C)Sc1nnc(SC(C)C(=O)N/N=C(\C)Cc2ccc3c(c2)OCO3)s1 (stereo unspecified)
66.2 µM (inactive)

Request the reported GI50 associated with CC(C)(SCc1ccccc1)C(N)C(=O)O (stereo unspecified)
> 100 µM (inactive)

Request the reported GI50 associated with "CN(C)CCn1cnc2sc3ccccc3c21"
> 100 µM (inactive)

Request the reported GI50 associated with "c1ccc(CN(Cc2ccccn2)Cn2cccn2)nc1"
29.5 µM (inactive)

---

Test system: COLO 205
Test: NCI tumour cell line growth inhibition, 48 h
The source made the active and inactive calls. Cut-off read from the data, not from the text of the source: active = GI50 up to about 1.1 µM and inactive = higher. Where a SMILES comes first, the peptide text is derived from it. The star is where a group is joined. Boc = CC(C)(C)OC(=O)*
# GI50 listing for each entry below

# count of solved cases: 5
{"Compound": "CC1=C2C(O)C(C(C)C(=O)NCC(C)C)CCC2(C)C=CC1=O (configuration not stated)", "System Name": "COLO 205", "GI50": "> 100 µM (inactive)"}
{"Compound": "O=[N+]([O-])/C=C/c1cc2ccccc2[nH]1", "System Name": "COLO 205", "GI50": "17.2 µM (inactive)"}
{"Compound": "COc1cc(C)c2c(c1C)OC(=O)c1c(C)c(Cl)c(O)c(C=O)c1O2", "System Name": "COLO 205", "GI50": "29.2 µM (inactive)"}
{"Compound": "CCC(CCCC[C@H]1CC[C@@H]2CC(=O)C[C@H]12)OC (some centres not stated)", "System Name": "COLO 205", "GI50": "> 100 µM (inactive)"}
{"Compound": "CN(C)c1ccc(/C=C(\\NC(=O)c2ccccc2)c2nc3ccc4c(c3[nH]2)C(=O)c2ccccc2C4=O)cc1", "System Name": "COLO 205", "GI50": "> 100 µM (inactive)"}

Request the reported GI50 associated with "Cc1ccc(Oc2cc(C)ccc2P(=O)(O)O)cc1"
> 100 µM (inactive)

Request the reported GI50 associated with C=CCNC(=O)N(CCCCC(NC(C)=O)C(=O)NCc1ccccc1)Cc1ccccc1 (configuration not stated)
> 100 µM (inactive)

Request the reported GI50 associated with "COc1ccc(C2=C(Cl)c3cc(OC)c(OC)cc3C2=O)cc1OC"
3.16 µM (inactive)

Request the reported GI50 associated with "O=C(O)c1ccc(/C=N\N(CCO)C2=NCCN2)cc1"
> 100 µM (inactive)

Request the reported GI50 associated with Cc1cccc2c1C(=O)C1(Cc3ccccc3C1=O)C2 (configuration not stated)
> 100 µM (inactive)

Request the reported GI50 associated with O=C1CC(c2ccc(Cl)cc2)C2(C(=O)NC(=S)NC2=O)C(c2ccc(Cl)cc2)C1 (configuration not stated)
16.8 µM (inactive)

Request the reported GI50 associated with CN(C)C1(N(C)C)Oc2c(c(=O)n(C)c(=O)n2C)C(c2ccc(C(F)(F)F)cc2)C1(F)F (configuration not stated)
> 100 µM (inactive)

Request the reported GI50 associated with "O=S(=O)(c1ccccc1)c1nccs1"
> 100 µM (inactive)

Request the reported GI50 associated with "O=[N+]([O-])c1ccc(Cl)c2c([N+](=O)[O-])cccc12"
4.57 µM (inactive)

Request the reported GI50 associated with COC(=O)C(Cc1c[nH]c2ccccc12)NC(=O)C(Cc1c[nH]c2ccccc12)NC(=O)C(Cc1c[nH]c2ccccc12)NC(=O)OC(C)(C)C (stereo not drawn) (Boc-Trp-Trp-Trp-OMe; configuration not given here)
20.4 µM (inactive)

---

Tested on: UO-31
Test: NCI tumour cell line growth inhibition, 48 h
Calls of active or inactive are those of the source. Cut-off read from the data, not from the text of the source: active = GI50 up to about 1.1 µM and inactive = higher. Square brackets hold non-standard residues; d marks the D form. Peptide text beside a SMILES is read from it. * marks the point of attachment. Tyr(3-Br) = N[C@@H](Cc1ccc(O)c(Br)c1)C(=O)O; Boc = CC(C)(C)OC(=O)*
Measured Endpoint: GI50

# count of solved cases: 5
{"Compound": "Clc1ccccc1NN(Cc1ccncc1)c1ccccc1Cl", "Reading": "24.5 µM (inactive)"}
{"Compound": "COc1cc(S(=O)(=O)N/N=C/C=C/c2ccccc2)c(OC)cc1NC(C)=O", "Reading": "42.9 µM (inactive)"}
{"Compound": "COC(=O)[C@H](Cc1ccc(O)c(Br)c1)NC(=O)[C@H](Cc1ccc(O)cc1)NC(=O)OC(C)(C)C (Boc-Tyr-[Tyr(3-Br)]-OMe)", "Reading": "29 µM (inactive)"}
{"Compound": "NC(CCc1nc(-c2ccc(Cl)cc2)cs1)C(=O)O (stereo unspecified)", "Reading": "> 100 µM (inactive)"}
{"Compound": "CC(=O)Nc1sccc1S(=O)(=O)c1ccc(Cl)cc1", "Reading": "> 100 µM (inactive)"}

Request the reported GI50 associated with "Cc1cccc(Cl)c1NC(N)=S"
51.6 µM (inactive)

Request the reported GI50 associated with C=CC1(C)/C(=N\O)C(C)(CC)C(=O)N1O (stereo unspecified)
> 100 µM (inactive)

Request the reported GI50 associated with "Cc1ccc(S(=O)(=O)Oc2ccc(OS(=O)(=O)c3ccc(C)cc3)c3c2C(=O)c2ccccc2C3=O)cc1"
33.8 µM (inactive)

Request the reported GI50 associated with NNC(=O)N/N=C1/C(=O)N(c2ccc(Cl)c(Cl)c2)C(=O)C(=O)C1c1nc2ccccc2o1 (stereo unspecified)
> 100 µM (inactive)

Request the reported GI50 associated with C=CCO[C@]1(CC=C)C(=O)C(=O)OC1C1COC(C)(C)O1 (stereo partly specified)
84.5 µM (inactive)

Request the reported GI50 associated with "Cn1c(=O)c2nc3c4ccccc4c(=O)n(C)c3nc2n(C)c1=O"
> 100 µM (inactive)

---

Test system: NCI-H226
Experiment: NCI tumour cell line growth inhibition, 48 h
Activity calls are given as the source filed them. Rule as the data show it: active = GI50 up to about 1.1 µM and inactive = higher.
# GI50 listing for each entry below

{"Molecule": "C=CC1C(OC2OC(CO)C(O)C(O)C2O)OC=C(C(=O)OC)C1CC1CC(=O)CC(CCc2ccc(O)cc2)O1 (stereo unspecified)", "Reading": "> 100 µM (inactive)"}
{"Molecule": "Oc1ccc2ccccc2c1-c1c(Nc2ccccc2)ccc2ccccc12", "Reading": "21 µM (inactive)"}
{"Molecule": "O=c1[nH]nc(-c2ccccc2)n1/N=C/c1cccnc1", "Reading": "57.9 µM (inactive)"}
{"Molecule": "CC1(CCCCO)C=CC(S(=O)(=O)c2ccccc2)CC1 (stereo unspecified)", "Reading": "2.43 µM (inactive)"}

Moving on to another molecule below.
Request the reported GI50 associated with "CCc1n[nH]c(=O)n1NC(=O)CCCC(=O)O"
> 100 µM (inactive)

---

Tested on: K562
Assay: NCI tumour cell line growth inhibition, 48 h
The source made the active and inactive calls. No stated cut-off is given here; in the data, active = GI50 up to about 1.1 µM and inactive = higher.
Response enum: class 1 = active, class 0 = inactive

Answered cases to consult:
{"Molecule": "CC1(C)OC(C(C)(C)O)C(C(C)(C)O)O1 (configuration not stated)", "Category Label": "class 0"}
{"Molecule": "Oc1ccc(Cl)cc1-c1cc(-c2ccccc2)nc(S)n1", "Category Label": "class 0"}
{"Molecule": "O=C(/C=C/c1ccsc1)c1cccs1", "Category Label": "class 0"}

How did this test come out for "COc1ccc2nccc(SCC(=O)O)c2c1" ?
class 0

How did this test come out for "Cn1cnc(/C=C/C#N)c1" ?
class 0

How did this test come out for O=c1[nH]c2cc(Cl)ccc2nc1/C(=N/Nc1ccccc1)C(O)c1ccco1 (configuration not stated) ?
class 0

How did this test come out for CC1=CC2C(C(C)C)CC1C1C(=O)OC(=O)C21 (configuration not stated) ?
class 0

How did this test come out for CC1CCC2C(C)C(=O)OC3OC4(C)CCC1C32OO4 (configuration not stated) ?
class 0

How did this test come out for "CCN(CC)C(=S)SNCc1ccc(S(N)(=O)=O)cc1" ?
class 0

How did this test come out for "C=CC[C@@H]1C(=O)[C@@]2(O[Si](C(C)C)(C(C)C)C(C)C)CC[C@@H]1C[C@H]2NC(=O)OCC(Cl)(Cl)Cl" ?
class 0

How did this test come out for COC(=O)C1=C(O)C(C(=O)OC)[C@@]2(O)[C@@H](C(=O)OC)CC[C@@H]1[C@@H]2C(=O)OC (some centres not stated) ?
class 0

How did this test come out for "Cc1cccc(C)c1NC(=O)CCCC(=O)CC(=O)/C=C/c1ccccc1" ?
class 0

How did this test come out for "CC(=O)N(O)Cc1ccccc1" ?
class 0

How did this test come out for "Oc1nc(-c2cccc(F)c2)nc2ccccc12" ?
class 1
